The measured values listed here are drawn from ChEMBL document CHEMBL2417373.

testedTarget: Orexin/Hypocretin receptor type 1 (Homo sapiens)
Sequence (whole entry): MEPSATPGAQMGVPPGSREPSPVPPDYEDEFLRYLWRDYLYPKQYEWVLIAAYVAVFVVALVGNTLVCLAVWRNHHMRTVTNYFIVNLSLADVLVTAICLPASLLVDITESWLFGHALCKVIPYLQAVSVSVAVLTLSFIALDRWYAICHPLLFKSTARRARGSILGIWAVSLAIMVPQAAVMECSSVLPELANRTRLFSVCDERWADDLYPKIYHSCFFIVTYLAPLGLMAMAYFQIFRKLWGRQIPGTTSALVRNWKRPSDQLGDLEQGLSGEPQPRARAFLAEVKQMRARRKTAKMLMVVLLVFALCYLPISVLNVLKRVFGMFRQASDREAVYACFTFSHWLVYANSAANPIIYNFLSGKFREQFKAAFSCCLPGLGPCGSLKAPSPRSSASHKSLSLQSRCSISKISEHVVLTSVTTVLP
test: Antagonist activity at OX1 receptor (unknown origin) expressed in RD-HGA16 cells assessed as inhibition orexin A-induced calcium mobilization by fluorescence assay
Type: functional, cell-based
Mark TRUE only for Ke(app) values smaller than 2000 nM; exact matches and larger values are FALSE.

>>> classassignment("CCCCCCOc1cc2c(cc1OC)CCN(CC(=O)NCc1ccccc1)C2Cc1ccc(OC)c(OC)c1 (stereo not drawn)")
"TRUE"
>>> classassignment("COc1ccc(CC2c3cc(OC)c(OC)cc3CCN2CC(=O)Nc2cccc3ccccc23)cc1OC (stereo not drawn)")
"TRUE"
>>> classassignment("COc1ccc(CC2c3cc(OC)c(OC)cc3CCN2CC(=O)Nc2ccccc2-c2ccccc2)cc1OC (stereo not drawn)")
"TRUE"
>>> classassignment("COc1ccc(CC2c3cc(OC)c(OC)cc3CCN2CC(=O)NCC(N)=O)cc1OC (stereo not drawn)")
"FALSE"

Is Ke(app) strictly under 2000 nM for the entry COc1ccc(CC2c3cc(OC)c(OC)cc3CCN2CC(=O)NCc2ccncc2)cc1OC (stereo not drawn) ? TRUE

Lab note: Ke(app) threshold 2000 nM. Does this compound come in strictly under it? COc1ccc(CC2c3cc(OC)c(OC)cc3CCN2CC(=O)Nc2ccc(-c3ccccc3)cc2)cc1OC (stereo not drawn) FALSE

In plain terms, does COc1ccc(CC2c3cc(OCCC(C)C)c(OC)cc3CCN2CC(=O)NCc2ccccc2)cc1OC (stereo not drawn) come in under 2000 nM for Ke(app)? TRUE

Does this compound meet the criterion Ke(app) < 2000 nM? COc1ccc(CC2c3cc(OC)c(OC)cc3CCN2CC(=O)N2CCN(c3ccccc3)CC2)cc1OC (stereo not drawn) FALSE

Could you please tell me whether Ke(app) recorded for CCCCCCNC(=O)Nc1ccc(CNC(=O)CN2CCc3cc(OC)c(OC)cc3C2Cc2ccc(OC)c(OC)c2)cc1 (stereo not drawn) is less than 2000 nM? FALSE

Identify whether the compound COc1ccc(CC2c3cc(OC)c(OC)cc3CCN2CC(=O)NCCCc2ccccc2)cc1OC (stereo not drawn) records Ke(app) below 2000 nM. FALSE

Determine whether this compound shows Ke(app) lower than 2000 nM (ties excluded): COc1ccc(CC2c3cc(OC)c(OC)cc3CCN2CC(=O)Nc2ccnc3c(F)cccc23)cc1OC (stereo not drawn) FALSE

Criterion: Ke(app) strictly below 2000 nM. Is it met by COc1ccc(CC2c3cc(OC)c(OC)cc3CCN2CC(=O)Nc2cc(C)nc3ccccc23)cc1OC (stereo not drawn) ? FALSE

For COc1ccc(CC2c3cc(OCCCCN(C)C)c(OC)cc3CCN2CC(=O)NCc2ccccc2)cc1OC (stereo not drawn) , is the recorded Ke(app) below the cut-off of 2000 nM? FALSE

hey, is Ke(app) for COc1ccc(CC2c3cc(OC)c(OC)cc3CCN2CC(=O)N2CCC(c3ccccc3)CC2)cc1OC (stereo not drawn) lower than 2000 nM or not? FALSE

Check if Ke(app) falls below 2000 nM for COC(=O)CNC(=O)CN1CCc2cc(OC)c(OC)cc2C1Cc1ccc(OC)c(OC)c1 (stereo not drawn) . FALSE

Is it true that Ke(app) reported for CCCCCC(=O)Nc1ccc(CNC(=O)CN2CCc3cc(OC)c(OC)cc3C2Cc2ccc(OC)c(OC)c2)cc1 (stereo not drawn) is less than 2000 nM? FALSE

hey, is Ke(app) for CCCOc1cc2c(cc1OC)CCN(CC(=O)NCc1ccccc1)C2Cc1ccc(OC)c(OC)c1 (stereo not drawn) lower than 2000 nM or not? TRUE

Criterion: Ke(app) strictly below 2000 nM. Is it met by CCOc1cc2c(cc1OC)CCN(CC(=O)NCc1cccnc1)C2Cc1ccc(OC)c(OC)c1 (stereo not drawn) ? TRUE
